Data origin, for the record: the RNAGym collection of RNA variant scans (doi:10.1126/science.aae0568)

B1: tRNA (parent)
chain: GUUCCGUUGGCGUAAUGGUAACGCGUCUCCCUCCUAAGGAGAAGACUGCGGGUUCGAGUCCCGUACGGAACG

Variants of: B1
Assay: yeast fitness relative to wild type (ratio to wild type); higher = fitter; tRNA-Arg(CCU), competitive growth, 37 C, YPD
Variants at the floor of the assay were thinned out.
Output TRUE for yeast fitness not less than 0.7; output FALSE otherwise.

Solved cases (10 shown):
Mutation key	Qualitative label
C11G A36C G56A A70U	FALSE
C34U C49A G56C C62A A65C	FALSE
G9A C11U A36C G48C	FALSE
U8G U26A A43C C49U C55G C60A	FALSE
U13A A69U	TRUE
U3C G10A G52A U54C G56A G58A	FALSE
C55G G67A	TRUE
C11U U19G A69U	TRUE
C5U G39A	TRUE
G6A C66U G67A	FALSE

Prompt: Threshold query (yeast fitness >= 0.7) on A14G G17C A36C G48A C49G G51A A70C
Completion: FALSE

Prompt: Threshold query (yeast fitness >= 0.7) on U35G G52A
Completion: FALSE

Prompt: Threshold query (yeast fitness >= 0.7) on A20U G68U
Completion: TRUE

Prompt: Threshold query (yeast fitness >= 0.7) on U26G A37C
Completion: FALSE

Prompt: Threshold query (yeast fitness >= 0.7) on C27G C46A
Completion: TRUE
